# Tested on: GCT (Other Solid Carcinomas)
# protocol summary: combination Emax (second highest fraction inhibited in the dose matrix, 72 h); higher = more inhibition; extreme values may be limits of the assay
Quick list: combination Emax per entry.

INSERT INTO results (molecule, reading) VALUES
  ('CCN(CCO)CCCOc1ccc2c(Nc3cc(CC(=O)Nc4cccc(F)c4)[nH]n3)ncnc2c1 [AZD2811] + O=C(c1cc(Cc2n[nH]c(=O)c3ccccc23)ccc1F)N1CCN(C(=O)C2CC2)CC1 [Olaparib] (first compound max 1 µM, 7x7, partner max 10 µM)', 0.328);

stdin: Identify measured combination Emax obtained with GCT (Other Solid Carcinomas) for CCc1c2c(nc3ccc(O)cc13)-c1cc3c(c(=O)n1C2)COC(=O)[C@]3(O)CC [SN-38] + O=C(c1cc(Cc2n[nH]c(=O)c3ccccc23)ccc1F)N1CCN(C(=O)C2CC2)CC1 [Olaparib] (first compound max 0.3 µM, 7x7, partner max 10 µM) .
stdout: 0.753

stdin: Give combination Emax only, for C[C@@H](c1ccc2nccn2c1)n1nnc2ncc(-c3cnn(C)c3)nc21 [Savolitinib] + CN(CC[C@H](CSC1=CC=CC=C1)NC2=C(C=C(C=C2)S(=O)(=O)NC(=O)C3=CC=C(C=C3)N4CCC(CC4)[C@H](C5=CC=CC=C5C6=CC=C(C=C6)Cl)O)S(=O)(=O)C(F)(F)F)CCO [AZD4320] (first compound max 1 µM, 7x7, partner max 1 µM) , using GCT (Other Solid Carcinomas) data.
stdout: 0.2

stdin: For GCT (Other Solid Carcinomas), give combination Emax of the listed molecule: CC1(C)CCC(CN2CCN(c3ccc(C(=O)NS(=O)(=O)c4ccc(NCC5CCOCC5)c([N+](=O)[O-])c4)c(Oc4cnc5[nH]ccc5c4)c3)CC2)=C(c2ccc(Cl)cc2)C1 [Venetoclax] + C[C@@H]1COCCN1C2=NC(=NC(=C2)C3(CC3)[S@](=N)(=O)C)C4=C5C=CNC5=NC=C4 [AZD6738] (first compound max 1 µM, 7x7, partner max 10 µM)
stdout: 0.334

stdin: Param request: combination Emax | system GCT (Other Solid Carcinomas) | item COc1nnc2ccc(N3CCC(c4ccc(OCCN5CCN(C)C(=O)[C@H]5C)cc4)CC3)nn12 [AZD5153] + CN(CC[C@H](CSC1=CC=CC=C1)NC2=C(C=C(C=C2)S(=O)(=O)NC(=O)C3=CC=C(C=C3)N4CCC(CC4)[C@H](C5=CC=CC=C5C6=CC=C(C=C6)Cl)O)S(=O)(=O)C(F)(F)F)CCO [AZD4320] (first compound max 1 µM, 7x7, partner max 1 µM)
stdout: 0.595

stdin: Report the value of combination Emax obtained on GCT (Other Solid Carcinomas) for CN(CCO)CC[C@H](CSc1ccccc1)Nc1ccc(S(=O)(=O)NC(=O)c2ccc(N3CCC([C@@H](O)c4ccccc4-c4ccc(Cl)cc4)CC3)cc2)cc1S(=O)(=O)C(F)(F)F [AZD4320] + C[C@@H]1COCCN1C2=NC(=NC(=C2)C3(CC3)[S@](=N)(=O)C)C4=C5C=CNC5=NC=C4 [AZD6738] (first compound max 1 µM, 7x7, partner max 10 µM) .
stdout: 0.304

stdin: Give measured combination Emax for CC1(C)CCC(CN2CCN(c3ccc(C(=O)NS(=O)(=O)c4ccc(NCC5CCOCC5)c([N+](=O)[O-])c4)c(Oc4cnc5[nH]ccc5c4)c3)CC2)=C(c2ccc(Cl)cc2)C1 [Venetoclax] + CCN(CCO)CCCOc1ccc2c(Nc3cc(CC(=O)Nc4cccc(F)c4)[nH]n3)ncnc2c1 [AZD2811] (first compound max 1 µM, 7x7, partner max 1 µM) (GCT (Other Solid Carcinomas)).
stdout: 0.273

stdin: Report measured combination Emax on GCT (Other Solid Carcinomas); entry: CCc1c2c(nc3ccc(O)cc13)-c1cc3c(c(=O)n1C2)COC(=O)[C@]3(O)CC [SN-38] + CN(C)CCCOc1ccc(-c2ccc3ncc4c(c3c2)n(C2CCOCC2)c(=O)n4C)cn1 [AZD0156] (first compound max 0.3 µM, 7x7, partner max 1 µM)
stdout: 0.683

stdin: Provide the reported combination Emax (system: GCT (Other Solid Carcinomas)) for CC1(C)CCC(CN2CCN(c3ccc(C(=O)NS(=O)(=O)c4ccc(NCC5CCOCC5)c([N+](=O)[O-])c4)c(Oc4cnc5[nH]ccc5c4)c3)CC2)=C(c2ccc(Cl)cc2)C1 [Venetoclax] + Cc1cc2ncnn2cc1Nc1ncc2c(n1)n(C1CCOCC1)c(=O)n2C [AZD7648] (first compound max 1 µM, 7x7, partner max 10 µM)
stdout: 0.283

stdin: Provide GCT (Other Solid Carcinomas) combination Emax reading for CN(CCO)CC[C@H](CSc1ccccc1)Nc1ccc(S(=O)(=O)NC(=O)c2ccc(N3CCC([C@@H](O)c4ccccc4-c4ccc(Cl)cc4)CC3)cc2)cc1S(=O)(=O)C(F)(F)F [AZD4320] + C[C@@H](Nc1cc(F)cc(F)c1)c1cc(C(=O)N(C)C)cc2c(=O)cc(N3CCOCC3)oc12 [AZD8186] (first compound max 1 µM, 7x7, partner max 3 µM) .
stdout: 0.442

stdin: Write down measured combination Emax (GCT (Other Solid Carcinomas)) for this molecule. COc1cc2c(cc1OCCCCCOc1cc3c(cc1OC)C(=O)N1C=C(C)C[C@H]1C=N3)N=C[C@@H]1CC(C)=CN1C2=O [SG3199] + O=C(c1cc(Cc2n[nH]c(=O)c3ccccc23)ccc1F)N1CCN(C(=O)C2CC2)CC1 [Olaparib] (first compound max 0.001 µM, 7x7, partner max 10 µM)
stdout: 0.204

stdin: GET combination Emax where system = GCT (Other Solid Carcinomas) and item = Cn1cnc2c(F)c(Nc3ccc(Br)cc3Cl)c(C(=O)NOCCO)cc21 [Selumetinib] + C=CCn1c(=O)c2cnc(Nc3ccc(N4CCN(C)CC4)cc3)nc2n1-c1cccc(C(C)(C)O)n1 [AZD1775] (first compound max 10 µM, partner max 1 µM)
stdout: 0.384
